Consider the following compounds; for each one, report its hERG current change (%, negative = inhibition) at 10uM.
- target_system: human ether-à-go-go-related gene (hERG) potassium channel (human, UniProt Q12809);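 note: peak tail current of the secondary pulse compared with the same well before compound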
- Sequence (Q12809 whole entry, looked up): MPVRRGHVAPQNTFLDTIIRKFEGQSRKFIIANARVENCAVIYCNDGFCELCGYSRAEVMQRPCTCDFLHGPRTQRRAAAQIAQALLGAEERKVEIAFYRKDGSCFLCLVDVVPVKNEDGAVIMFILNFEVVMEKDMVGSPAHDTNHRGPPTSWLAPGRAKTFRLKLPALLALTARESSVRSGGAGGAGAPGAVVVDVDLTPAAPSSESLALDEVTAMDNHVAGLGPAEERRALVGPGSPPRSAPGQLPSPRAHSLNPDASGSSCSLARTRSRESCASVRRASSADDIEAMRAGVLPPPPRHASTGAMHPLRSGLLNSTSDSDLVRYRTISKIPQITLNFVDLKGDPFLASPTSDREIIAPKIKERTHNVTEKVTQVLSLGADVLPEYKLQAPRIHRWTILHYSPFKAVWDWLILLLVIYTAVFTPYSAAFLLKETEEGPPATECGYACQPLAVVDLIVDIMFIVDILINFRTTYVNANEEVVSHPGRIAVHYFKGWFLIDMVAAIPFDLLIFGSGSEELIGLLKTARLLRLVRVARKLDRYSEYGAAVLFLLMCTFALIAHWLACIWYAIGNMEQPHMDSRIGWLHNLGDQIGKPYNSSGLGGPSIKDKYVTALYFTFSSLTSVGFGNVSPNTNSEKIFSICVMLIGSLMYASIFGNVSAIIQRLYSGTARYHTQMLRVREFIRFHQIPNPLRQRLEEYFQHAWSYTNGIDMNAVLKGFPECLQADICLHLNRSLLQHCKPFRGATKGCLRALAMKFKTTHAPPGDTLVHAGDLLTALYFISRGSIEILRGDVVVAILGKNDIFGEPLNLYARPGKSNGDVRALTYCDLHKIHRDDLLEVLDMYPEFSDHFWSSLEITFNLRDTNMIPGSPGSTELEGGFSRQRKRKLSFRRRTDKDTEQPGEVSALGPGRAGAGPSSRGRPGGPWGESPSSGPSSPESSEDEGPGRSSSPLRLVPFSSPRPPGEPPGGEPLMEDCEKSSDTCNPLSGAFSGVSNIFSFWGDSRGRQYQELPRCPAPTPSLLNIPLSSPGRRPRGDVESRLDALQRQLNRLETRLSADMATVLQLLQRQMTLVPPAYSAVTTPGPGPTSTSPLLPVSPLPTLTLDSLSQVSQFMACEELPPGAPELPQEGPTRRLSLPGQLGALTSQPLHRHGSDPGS
- test_details: primary screen, population patch clamp on CHO cells stably expressing hERG; higher = less effect of the substance
In all, about 310,000 compounds went through this assay and about 14,000 (4.5%) showed an effect of 50% or more. The effect is printed as a negative number. This is one part of a sample in which strong results are shown more often than they occur.
Write down the numeric answer in % and omit the unit.

Record lookup: for human ether-à-go-go-related gene (hERG) potassium channel (human, UniProt Q12809), what hERG current change (%, negative = inhibition) at 10uM belongs to `CN(Cc1ccccc1Br)C(=O)CN1C(=O)NC2(CCCCCC2)C1=O` ?
-11.1

Entry `NC(=S)N/N=C1\CCOc2ccc(Cl)cc21` please
1.36

Entry `CCCCCN(C(=O)CCC(=O)OCc1ccc(Cl)cc1Cl)c1c(N)n(CCCC)c(=O)[nH]c1=O` please
-50.1

Entry `CCCCCN(C(=O)CCC(=O)OCC(=O)NCc1cccc(OC)c1)c1c(N)n(CCCC)c(=O)[nH]c1=O` please
-0.375

Entry `CCc1nnc(NS(=O)(=O)c2ccc(Nc3ccc([N+](=O)[O-])c4nonc34)cc2)s1` please
46.6

Entry `CN(C)S(=O)(=O)Oc1ccccc1C(=O)Nc1ccc(F)cc1F` please
2.34

Entry `CCCCCN(C(=O)CCC(=O)OCC(=O)c1ccc(C(C)(C)C)cc1)c1c(N)n(CCCC)c(=O)[nH]c1=O` please
-33.7

Entry CCCCCN(C(=O)CCC(=O)OCC(=O)c1ccc(C(C)CC)cc1)c1c(N)n(CCCC)c(=O)[nH]c1=O (stereo not shown) please
8.1

Entry `O=C(Cc1cn(-c2ccccc2)nc1-c1ccccc1)N1CCCCC1` please
-18.3

Entry `COc1cc(Cl)c(C)cc1NC(=O)c1ccc2c(c1)OCO2` please
19

Entry CCC(C(=O)c1ccc(O)cc1)c1ccccc1 (stereo not shown) please
-5.56

Entry `Nc1nonc1-n1nnc(C(=O)N/N=C/c2cccc(Cl)c2)c1-c1cccs1` please
3.81

Entry `CCOC(=O)C(=NCCCN(C)C)NNc1cc(C(F)(F)F)ccc1Cl` please
-18.5

Entry `O=C(NCCc1csc(-c2cccc(F)c2)n1)c1ccco1` please
-4.61

Entry CCOC(=O)C1(CC2CCCCO2)CCN(Cc2nc(C(C)C)cs2)CC1 (stereo not shown) please
-5.24

Entry Cc1ccc(N2CC(C(=O)Nc3ccc(C)c(S(=O)(=O)N(C)C)c3)CC2=O)cc1 (stereo not shown) please
-25.2

Entry `O=C(NS(=O)(=O)Nc1ccc(Cl)cc1)c1c[nH]c2ccccc12` please
23.2

Entry CCc1nnc(NC(=O)C(NC(=O)c2ccccc2Cl)C(C)C)s1 (stereo not shown) please
0.192

Entry COc1ccccc1NC(=O)CCN1C(=O)C2CC=C(Cl)CC2C1=O (stereo not shown) please
-2.46

Entry `CC(C)CNC(=O)CCc1nc(-c2ccccc2)no1` please
10.4

Entry CCOC(=O)C1(CC2CCCCO2)CCN(Cc2c(C)cc(C)cc2-n2cccn2)CC1 (stereo not shown) please
-77.8

Entry `CCCCCN(C(=O)CCC(=O)OCC(=O)c1ccc(CCC)cc1)c1c(N)n(CCCC)c(=O)[nH]c1=O` please
-61.5

Entry CCC(C(=O)c1ccc2ncccc2c1)c1ccccc1 (stereo not shown) please
-52.7

Entry `CCCCCN(C(=O)CCC(=O)OCC(=O)c1cccc(OC)c1)c1c(N)n(CCCC)c(=O)[nH]c1=O` please
-64.6

Entry `NC(=S)N/N=C1\CCOc2ccc(F)cc21` please
-76.9

Entry `O=P(Oc1ccccc1)(Oc1ccccc1)c1ccccc1` please
-21.8

Entry CSCC(=O)NC1CCCc2c1cnn2-c1ccc(C)c(C)c1 (stereo not shown) please
-28

Entry Cc1ccccc1C(=O)OC1OC(=O)C(Cl)=C1N1CCOCC1 (stereo not shown) please
-20.1

Entry CCOC(=O)C1(CC2CCCCO2)CCN(Cc2nc3ccccc3[nH]2)CC1 (stereo not shown) please
-19.5

Entry CC(C(=O)O)N1C(=O)c2cccc3cccc1c23 (stereo not shown) please
1.97

Entry COC(=O)c1ccc(C(=O)NC2CCCc3c2cnn3-c2ccc(C)c(C)c2)cc1 (stereo not shown) please
6.54

Entry C=CCNC(=O)CC1C(=O)NCCN1Cc1ccc(-c2ccccc2)cc1 (stereo not shown) please
-7.59

Entry Cc1cc(C(=O)NC2CCCc3c2cnn3-c2ccc(C)c(C)c2)no1 (stereo not shown) please
-42.9

Entry `CCC(=O)c1ccc2ncccc2c1` please
12.2

Entry CCOC(=O)C1(CC2CCCCO2)CCN(Cc2nccn2-c2cccc(C)c2)CC1 (stereo not shown) please
13.2

Entry `Cc1cc(=O)[nH]c(SCC(=O)Nc2nc(-c3ccccc3)c(-c3ccccc3)o2)n1` please
3.76

Entry CCOC(=O)C1(CC2CCCCO2)CCN(Cc2cc(F)ccc2-n2cccn2)CC1 (stereo not shown) please
-57.1

Entry `CCCCCN(C(=O)CCC(=O)OCc1cccc(Cl)c1)c1c(N)n(CCCC)c(=O)[nH]c1=O` please
8.16

Entry `Cc1c(NC(=O)c2cccs2)c(=O)n(-c2ccccc2)n1C` please
3.8

Entry CCCC(=O)NC1CCCc2c1cnn2-c1ccc(C)c(C)c1 (stereo not shown) please
-72
